Hey, just so you know, these numbers are from patent US20120135923A1.

- System name: hMC3-R (Homo sapiens, UniProt P41968)
- Construct: expressed in transfected cells; host or cells: CHO-K1
- Sequence (P41968 whole entry): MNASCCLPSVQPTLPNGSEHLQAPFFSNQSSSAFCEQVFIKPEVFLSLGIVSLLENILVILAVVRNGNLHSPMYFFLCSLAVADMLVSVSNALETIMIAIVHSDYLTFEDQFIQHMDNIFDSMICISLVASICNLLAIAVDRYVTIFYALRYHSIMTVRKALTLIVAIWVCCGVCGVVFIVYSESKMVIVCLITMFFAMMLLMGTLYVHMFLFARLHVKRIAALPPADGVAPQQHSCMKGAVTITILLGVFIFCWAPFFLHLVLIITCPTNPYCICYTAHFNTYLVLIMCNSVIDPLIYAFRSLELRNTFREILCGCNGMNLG
- Experiment summary: cyclic AMP bioassay (ECL) in CHO-K1 cells
- Type: cell-based
- Conditions used: Table 9A/9B; read-out: EC50 hMC3-R
Bridge positions count the residues as written; N and C are the ends. Square brackets hold non-standard residues; d marks the D form. Peptide text beside a SMILES is read from it. hArg = N=C(N)NCCCC[C@H](N)C(=O)O; Pen = CC(C)(S)[C@H](N)C(=O)O; Nle = CCCC[C@H](N)C(=O)O; Ava = NCCCCC(=O)O; GABA = NCCCC(=O)O; βAla = NCCC(=O)O
Observation type: log10 EC50 (log10 of the value in nM)
In our notation, the value equals log10 of EC50 in nM.

Provide one value: measured log10 EC50 of CC(=O)N[C@@H](CCCNC(=N)N)C(=O)N[C@H]1CSSC(C)(C)[C@@H](C(N)=O)NC(=O)CCCNC(=O)[C@H](Cc2c[nH]c3ccccc23)NC(=O)[C@H](CCCNC(=N)N)NC(=O)[C@@H](Cc2ccccc2)NC(=O)[C@H](Cc2c[nH]cn2)NC1=O (Ac-RCH[dF]RW[GABA][Pen]-NH2; disulfide 2-8 (inferred))
0.91

Provide one value: measured log10 EC50 of "CCCC[C@H](NC(C)=O)C(=O)N[C@H]1CSSC[C@@H](C(N)=O)NC(=O)[C@H](Cc2c[nH]c3ccccc23)NC(=O)[C@H](CCCNC(=N)N)NC(=O)[C@@H](Cc2ccccc2)NC(=O)[C@H](Cc2c[nH]cn2)NC(=O)[C@@H](CC(C)C)NC1=O"
-0.33

Provide one value: measured log10 EC50 of CC(=O)N[C@H](CCCNC(=N)N)C(=O)N[C@H]1CSSC(C)(C)[C@@H](C(N)=O)NC(=O)CCCNC(=O)[C@H](Cc2c[nH]c3ccccc23)NC(=O)[C@H](CCCNC(=N)N)NC(=O)[C@@H](Cc2ccccc2)NC(=O)[C@H](Cc2c[nH]cn2)NC1=O (Ac-[dR]CH[dF]RW[GABA][Pen]-NH2; disulfide 2-8 (inferred))
1.51

Provide one value: measured log10 EC50 of CCCC[C@H](N)C(=O)N[C@H]1CSSC[C@@H](C(N)=O)NC(=O)CCCCNC(=O)[C@H](Cc2c[nH]c3ccccc23)NC(=O)[C@H](CCCNC(=N)N)NC(=O)[C@@H](Cc2ccccc2)NC(=O)[C@H](Cc2c[nH]cn2)NC1=O [Nle-c(Cys-His-D-Phe-Arg-Trp-Apn-Cys)-NH2] (H-[Nle]CH[dF]RW[Ava]C-NH2; disulfide 2-8)
-0.57

Provide one value: measured log10 EC50 of "CC(=O)N[C@@H](CCCNC(=N)N)C(=O)N[C@H]1CC(=O)NCCCC[C@@H](C(N)=O)NC(=O)[C@H](C)NC(=O)[C@H](Cc2c[nH]c3ccccc23)NC(=O)[C@H](CCCNC(=N)N)NC(=O)[C@@H](Cc2ccccc2)NC(=O)[C@H](Cc2c[nH]cn2)NC1=O"
0.46

Provide one value: measured log10 EC50 of "CC(=O)N[C@@H](CC1CCCCC1)C(=O)N[C@H]1CC(=O)NCCCC[C@@H](C(N)=O)NC(=O)CCCNC(=O)[C@H](Cc2c[nH]c3ccccc23)NC(=O)[C@H](CCCNC(=N)N)NC(=O)[C@@H](Cc2ccccc2)NC(=O)[C@H](Cc2c[nH]cn2)NC1=O"
-0.72

Provide one value: measured log10 EC50 of "CC(=O)N[C@@H](CCC1CCCCC1)C(=O)N[C@H]1CC(=O)NCCCC[C@@H](C(N)=O)NC(=O)CCCNC(=O)[C@H](Cc2c[nH]c3ccccc23)NC(=O)[C@H](CCCNC(=N)N)NC(=O)[C@@H](Cc2ccccc2)NC(=O)[C@H](Cc2c[nH]cn2)NC1=O"
0.52

Provide one value: measured log10 EC50 of CCOc1ccc(C[C@H]2NC(=O)[C@H](Cc3c[nH]cn3)NC(=O)[C@@H](NC(=O)[C@H](N)Cc3ccccc3)CSSC[C@H](C(=O)N[C@H](C(N)=O)[C@@H](C)O)NC(=O)CCNC(=O)[C@H](Cc3c[nH]c4ccccc34)NC(=O)[C@H](CCCCNC(=N)N)NC2=O)cc1 (H-[dF]CH[dY](Et)[hArg]W[βAla][dC]T-NH2; disulfide 2-8)
0.43
